ASSAYED SYSTEM: UniProtKB Q5S007
Sequence (Q5S007 whole entry): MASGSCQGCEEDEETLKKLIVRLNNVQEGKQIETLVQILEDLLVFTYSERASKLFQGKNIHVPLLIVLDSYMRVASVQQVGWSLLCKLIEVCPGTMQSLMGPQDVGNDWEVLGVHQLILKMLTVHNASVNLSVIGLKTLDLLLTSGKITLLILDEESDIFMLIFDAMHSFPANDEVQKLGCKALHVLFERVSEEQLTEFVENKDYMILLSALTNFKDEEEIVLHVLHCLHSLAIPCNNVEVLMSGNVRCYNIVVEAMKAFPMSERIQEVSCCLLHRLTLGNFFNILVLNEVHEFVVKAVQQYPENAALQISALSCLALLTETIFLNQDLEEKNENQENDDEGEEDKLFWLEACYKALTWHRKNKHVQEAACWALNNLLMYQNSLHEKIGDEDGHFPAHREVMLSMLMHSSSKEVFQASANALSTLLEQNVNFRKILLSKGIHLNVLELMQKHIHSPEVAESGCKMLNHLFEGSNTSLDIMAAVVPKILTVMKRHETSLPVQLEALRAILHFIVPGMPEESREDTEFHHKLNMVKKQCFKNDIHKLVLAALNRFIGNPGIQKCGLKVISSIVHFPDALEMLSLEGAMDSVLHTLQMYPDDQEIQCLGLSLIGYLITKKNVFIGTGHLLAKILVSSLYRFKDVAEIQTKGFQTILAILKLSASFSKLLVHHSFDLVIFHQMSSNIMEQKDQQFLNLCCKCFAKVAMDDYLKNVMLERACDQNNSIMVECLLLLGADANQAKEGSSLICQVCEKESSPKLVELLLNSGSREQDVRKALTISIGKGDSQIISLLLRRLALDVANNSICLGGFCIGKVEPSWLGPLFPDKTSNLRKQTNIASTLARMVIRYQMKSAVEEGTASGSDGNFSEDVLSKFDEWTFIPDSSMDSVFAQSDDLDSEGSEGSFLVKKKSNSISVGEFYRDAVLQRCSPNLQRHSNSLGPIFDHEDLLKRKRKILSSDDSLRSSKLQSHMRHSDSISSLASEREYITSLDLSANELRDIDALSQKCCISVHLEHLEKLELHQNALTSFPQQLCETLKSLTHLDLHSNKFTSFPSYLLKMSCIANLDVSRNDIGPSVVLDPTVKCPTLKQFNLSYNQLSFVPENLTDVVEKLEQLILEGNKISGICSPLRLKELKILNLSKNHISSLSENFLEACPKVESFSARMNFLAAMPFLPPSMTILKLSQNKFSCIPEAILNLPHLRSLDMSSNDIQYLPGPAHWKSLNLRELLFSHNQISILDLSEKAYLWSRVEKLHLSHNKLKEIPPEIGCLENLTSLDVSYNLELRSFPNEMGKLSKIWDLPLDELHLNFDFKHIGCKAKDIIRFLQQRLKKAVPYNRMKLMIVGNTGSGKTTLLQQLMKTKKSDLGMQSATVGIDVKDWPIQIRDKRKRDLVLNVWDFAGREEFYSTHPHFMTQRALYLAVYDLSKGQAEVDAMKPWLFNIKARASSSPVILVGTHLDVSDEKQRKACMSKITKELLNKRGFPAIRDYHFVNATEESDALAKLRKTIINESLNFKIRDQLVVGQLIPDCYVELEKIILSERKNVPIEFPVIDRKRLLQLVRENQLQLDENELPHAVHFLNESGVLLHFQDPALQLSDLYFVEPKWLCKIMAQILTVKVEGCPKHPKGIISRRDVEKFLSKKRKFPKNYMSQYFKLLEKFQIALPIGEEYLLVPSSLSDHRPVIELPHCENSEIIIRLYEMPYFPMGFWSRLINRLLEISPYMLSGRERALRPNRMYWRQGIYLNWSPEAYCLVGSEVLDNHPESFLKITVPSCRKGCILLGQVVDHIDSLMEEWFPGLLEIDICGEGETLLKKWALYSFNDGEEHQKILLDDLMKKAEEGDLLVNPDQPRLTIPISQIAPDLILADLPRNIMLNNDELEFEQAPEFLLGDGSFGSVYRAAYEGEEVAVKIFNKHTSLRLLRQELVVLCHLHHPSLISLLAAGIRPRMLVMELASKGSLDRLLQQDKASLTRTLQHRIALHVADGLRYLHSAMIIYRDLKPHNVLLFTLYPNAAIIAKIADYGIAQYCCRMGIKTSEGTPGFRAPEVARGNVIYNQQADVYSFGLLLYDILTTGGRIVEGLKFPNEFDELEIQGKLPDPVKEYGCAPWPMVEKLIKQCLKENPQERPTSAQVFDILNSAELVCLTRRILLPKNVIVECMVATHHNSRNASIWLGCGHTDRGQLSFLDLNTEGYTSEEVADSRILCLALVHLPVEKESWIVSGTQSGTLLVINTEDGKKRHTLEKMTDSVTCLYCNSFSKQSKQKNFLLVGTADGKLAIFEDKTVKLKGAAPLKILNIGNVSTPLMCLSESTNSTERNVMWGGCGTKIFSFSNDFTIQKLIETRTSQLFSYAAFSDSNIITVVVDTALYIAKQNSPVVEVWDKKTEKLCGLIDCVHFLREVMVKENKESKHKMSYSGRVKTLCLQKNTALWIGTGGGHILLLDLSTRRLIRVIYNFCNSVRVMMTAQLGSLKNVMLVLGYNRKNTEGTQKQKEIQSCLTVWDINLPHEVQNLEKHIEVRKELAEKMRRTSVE
ASSAY TEXT: Inhibitory effect on LRRK2 in vitro (LANCE kinase assay)
Assay type: biochemical
EXPERIMENTAL CONDITIONS: Table 1, class symbols; read-out: LRRK2 inhibition rate (IC50)
pIC50: −log10 of the molar value.
Listing: pIC50 of selected molecules

{"columns": ["MOLECULE", "pIC50"],
 "data": [
  ["CCn1cc(Cl)c2cnc(Nc3cn(C4CCN(C(=O)C5CC5)CC4)nc3Cl)nc21", "7.00 to 8.00"],
  ["CS(=O)(=O)N1CCC(n2cc(Nc3ncc4c(Cl)nn(CC(F)(F)F)c4n3)c(Cl)n2)CC1", "7.00 to 8.00"],
  ["CCn1cc(Cl)c2cnc(Nc3cn(C4CCN(C(=O)N5CCN(C)CC5)CC4)nc3Cl)nc21", "> 8.00"],
  ["CCn1cc(Cl)c2cnc(Nc3cn(C4CCOCC4)nc3Cl)nc21", "7.00 to 8.00"],
  ["CCn1cc(Cl)c2cnc(Nc3cnn(C4CCN(C5COC5)CC4)c3Cl)nc21", "> 8.00"],
  ["CCn1nc(Cl)c2cnc(Nc3cn(C4CCN(S(=O)(=O)CC)CC4)nc3Cl)nc21", "> 8.00"],
  ["CCn1cc(Cl)c2cnc(Nc3cn([C@@H]4CCN(S(C)(=O)=O)C4)nc3Cl)nc21", "7.00 to 8.00"],
  ["CCn1cc(Cl)c2cnc(Nc3cn(-c4ccc(F)cc4)nc3Cl)nc21", "6.00 to 7.00"],
  ["CCn1cc(Cl)c2cnc(Nc3cnn(C)c3Cl)nc21", "7.00 to 8.00"],
  ["CCn1cc(Cl)c2cnc(Nc3cn(C4CC(C)OC(C)C4)nc3Cl)nc21 (centres unmarked)", "7.00 to 8.00"],
  ["CC(=O)N1CCC(n2ncc(Nc3ncc4c(Cl)cn(C)c4n3)c2Cl)CC1", "7.00 to 8.00"],
  ["CCn1cc(Cl)c2cnc(Nc3c(C)nn(C4CCN(S(C)(=O)=O)CC4)c3C)nc21", "6.00 to 7.00"],
  ["FC(F)(F)Cn1nc(Cl)c2cnc(Nc3cnn(C4CCN(C5COC5)CC4)c3Cl)nc21", "7.00 to 8.00"],
  ["CCn1cc(Cl)c2cnc(Nc3cn(C4CCCN(S(C)(=O)=O)CC4)nc3Cl)nc21 (centres unmarked)", "> 8.00"],
  ["CCn1nc(Cl)c2cnc(Nc3cn(C4CN(C(=O)C5CC5)C4)nc3Cl)nc21", "7.00 to 8.00"],
  ["CC(C)n1cc(Nc2ncc3c(Cl)cn(C)c3n2)c(C(F)(F)F)n1", "6.00 to 7.00"],
  ["CCn1cc(Cl)c2cnc(Nc3cn([C@H]4CCN(C(=O)C5CCCC5)C4)nc3Cl)nc21", "7.00 to 8.00"]
]}
